target: human V1a receptor (Homo sapiens, UniProt P37288); construct: expressed in transfected cells; host or cells: CHO K1 (ATCC), also stably transfected with a modified aequorin; experiment: Cellular in vitro assay for determining vasopressin receptor activity (V1a, aequorin luminescence); format: cell-based; details: selectivity ratio of IC50 hV2 to IC50 hV1a
Sequence (P37288 whole entry): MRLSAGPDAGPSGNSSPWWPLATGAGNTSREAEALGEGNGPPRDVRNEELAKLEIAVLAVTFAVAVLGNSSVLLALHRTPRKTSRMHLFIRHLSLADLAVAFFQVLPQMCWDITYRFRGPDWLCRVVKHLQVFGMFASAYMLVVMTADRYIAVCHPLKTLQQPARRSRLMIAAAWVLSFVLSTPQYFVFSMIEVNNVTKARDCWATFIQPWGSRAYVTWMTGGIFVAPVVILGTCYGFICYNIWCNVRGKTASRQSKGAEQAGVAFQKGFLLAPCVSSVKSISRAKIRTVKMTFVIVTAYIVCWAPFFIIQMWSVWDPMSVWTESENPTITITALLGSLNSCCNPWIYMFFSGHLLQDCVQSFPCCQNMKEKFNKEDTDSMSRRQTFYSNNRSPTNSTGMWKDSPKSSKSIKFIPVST

{"molecule": "O=C1NC(c2nc(Cn3nc(-c4ccc(Cl)cc4)n(C[C@H](O)C(F)(F)F)c3=O)nn2-c2ncccc2Cl)CO1 (mixture of isomers) [Example 112]", "ratio IC50 hV2/hV1a": 25.0}
{"molecule": "CC(=O)NC(C)c1nc(Cn2nc(-c3ccc(Cl)cc3)n(C[C@H](O)C(F)(F)F)c2=O)nn1-c1ncccc1Cl (mixture of isomers) [Example 107]", "ratio IC50 hV2/hV1a": 17.8}
{"molecule": "CC(NC(=O)C(F)(F)F)c1nc(Cn2nc(-c3ccc(Cl)cc3)n(C[C@H](O)C(F)(F)F)c2=O)nn1-c1ccccc1Cl (mixture of isomers) [Example 73]", "ratio IC50 hV2/hV1a": 5.5}
{"molecule": "C[C@H](OC(N)=O)c1nc(Cn2nc(-c3ccc(Cl)cc3)n(C[C@H](O)C(F)(F)F)c2=O)nn1-c1ccccc1Cl", "ratio IC50 hV2/hV1a": 3.7}
{"molecule": "COc1ccccc1-n1nc(Cn2nc(-c3ccc(Cl)cc3)n(C[C@H](OC(N)=O)C(F)(F)F)c2=O)nc1C(C)OC(N)=O (single isomer, unassigned) [Example 40]", "ratio IC50 hV2/hV1a": 1.1}
{"molecule": "CC(=O)NC(COC(C)(C)C)c1nc(Cn2nc(-c3ccc(Cl)cc3)n(C[C@H](O)C(F)(F)F)c2=O)nn1-c1ccccc1Cl (mixture of isomers) [Example 88]", "ratio IC50 hV2/hV1a": 30.3}
